Target: UniProt:Q3MHD2
Sequence (Q3MHD2 whole entry): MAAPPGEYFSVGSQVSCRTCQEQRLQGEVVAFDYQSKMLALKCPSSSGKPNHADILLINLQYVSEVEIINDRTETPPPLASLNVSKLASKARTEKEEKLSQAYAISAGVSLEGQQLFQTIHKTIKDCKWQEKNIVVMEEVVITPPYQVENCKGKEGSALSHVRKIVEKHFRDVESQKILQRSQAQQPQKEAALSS
result type: Kd

Query :: Recorded Kd of "Nc1ncnc2c1ncn2[C@@H]1O[C@H](COP(=O)(O)OP(=O)(O)OC[C@H]2O[C@@H]([n+]3cccc(C(=O)[O-])c3)[C@H](O)[C@@H]2O)[C@@H](O)[C@H]1OP(=O)(O)O" , please.
Result :: ~20 nM
